B1: library; a variant is named by its letters at N, in order (parent)
chain: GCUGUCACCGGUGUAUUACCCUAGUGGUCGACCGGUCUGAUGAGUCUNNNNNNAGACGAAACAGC

variants of: B1; test: normalized RNA/DNA level without ligand (relative to sTRSVctl = 100) (log10 (% of sTRSVctl)); ligand: hypoxanthine (xanthine aptamer); higher = less ribozyme self-cleavage, higher mRNA level; conditions: HEK293T, reporter: mCherry (pCS4076), ligand present: no
result_type: normalized RNA/DNA level without ligand (log10)

variant_annotation: AGGACA
reported_result: 1.71
//
variant_annotation: ACAGUU
reported_result: 1.73
//
variant_annotation: CCGCUU
reported_result: 1.89
//
variant_annotation: GACCCU
reported_result: 1.97
//
variant_annotation: CACAGC
reported_result: 1.87
//
variant_annotation: AGAAGG
reported_result: 1.42
//
variant_annotation: AGUCAU
reported_result: 1.79
//
variant_annotation: GGACGU
reported_result: 1.81
//
variant_annotation: CAUUGC
reported_result: 1.87
//
variant_annotation: GUAAGA
reported_result: 1.73
//
variant_annotation: UGAUAG
reported_result: 1.7
//
variant_annotation: UACCUG
reported_result: 1.64
//
variant_annotation: UAGAUC
reported_result: 1.95
//
variant_annotation: AACAUC
reported_result: 2.02
//
variant_annotation: CUUCGA
reported_result: 1.88
//
variant_annotation: AGGCAG
reported_result: 1.45
//
variant_annotation: GACGGU
reported_result: 1.8
//
variant_annotation: AUAACG
reported_result: 1.43
//
variant_annotation: CUAGCU
reported_result: 1.93
//
variant_annotation: CGUGGG
reported_result: 1.3
//
variant_annotation: GUCCUC
reported_result: 1.93
//
variant_annotation: AACACU
reported_result: 1.86
//
variant_annotation: ACUAUC
reported_result: 1.95
//
variant_annotation: UCGAUG
reported_result: 1.62
//
variant_annotation: GGGUGA
reported_result: 1.71
//
variant_annotation: AUCGUC
reported_result: 1.98
//
variant_annotation: CCGUAC
reported_result: 1.66
//
variant_annotation: CAGUGA
reported_result: 1.71
//
variant_annotation: AAACAG
reported_result: 1.35
//
variant_annotation: AGCUCA
reported_result: 1.9
//
variant_annotation: UGACGU
reported_result: 1.57
//
variant_annotation: GUCGCU
reported_result: 1.9
//
variant_annotation: UGUGUC
reported_result: 1.96
//
variant_annotation: CCACUA
reported_result: 1.86
//
variant_annotation: UUUUCU
reported_result: 1.9
//
variant_annotation: GGAAAG
reported_result: 1.34
//
variant_annotation: GGCGAG
reported_result: 1.47
//
variant_annotation: GGGCAG
reported_result: 1.59
//
variant_annotation: GCAGCU
reported_result: 1.95
//
variant_annotation: GGCGAC
reported_result: 1.83
//
variant_annotation: AAAGGC
reported_result: 1.78
//
variant_annotation: AUCCCG
reported_result: 1.51
//
variant_annotation: CAGUAA
reported_result: 1.53
//
variant_annotation: GCACAC
reported_result: 1.63
//
variant_annotation: UUUAUC
reported_result: 1.99
//
variant_annotation: GCUGGC
reported_result: 1.78
//
variant_annotation: CUUUCC
reported_result: 1.96
//
variant_annotation: UCAACA
reported_result: 1.84
//
variant_annotation: GAUCAG
reported_result: 1.72
//
variant_annotation: UGUGCA
reported_result: 1.86
//
variant_annotation: CGCGCC
reported_result: 1.96
//
variant_annotation: UAAGUG
reported_result: 1.65
//
variant_annotation: ACCGGG
reported_result: 1.89
//
variant_annotation: CCAGGC
reported_result: 1.86
//
variant_annotation: AUGGCG
reported_result: 1.38
//
variant_annotation: CUCUGG
reported_result: 1.75
//
variant_annotation: UCGGAU
reported_result: 1.4
//
variant_annotation: GACGUC
reported_result: 1.85
//
variant_annotation: ACUGAC
reported_result: 1.83
//
variant_annotation: UCUAGU
reported_result: 1.68
//
variant_annotation: GUCCAG
reported_result: 1.48
//
variant_annotation: AAUUGA
reported_result: 1.73
//
variant_annotation: CAUUGU
reported_result: 1.88
//
variant_annotation: GUGCCA
reported_result: 1.81
//
variant_annotation: ACCUCA
reported_result: 1.89
//
variant_annotation: AUCCAG
reported_result: 1.55
//
variant_annotation: AGUACU
reported_result: 1.89
//
variant_annotation: UUAGUG
reported_result: 1.67
//
variant_annotation: CCGGUA
reported_result: 1.86
//
variant_annotation: CCCGGG
reported_result: 1.68
//
variant_annotation: AGAACG
reported_result: 1.44
//
variant_annotation: GCGGUC
reported_result: 1.52
//
variant_annotation: AUUGAG
reported_result: 1.37
//
variant_annotation: GGGGGA
reported_result: 1.77
//
variant_annotation: AGGCCU
reported_result: 1.97
//
variant_annotation: GUAGAC
reported_result: 1.69
//
variant_annotation: AUCUGA
reported_result: 1.83
//
variant_annotation: CCGCAC
reported_result: 1.75
//
variant_annotation: UAACCA
reported_result: 1.89
//
variant_annotation: UGGUCA
reported_result: 1.84
//
variant_annotation: AUCAUA
reported_result: 1.8
//
variant_annotation: AGAGAG
reported_result: 1.32
//
variant_annotation: AUGAUC
reported_result: 1.93
//
variant_annotation: AUUGGC
reported_result: 1.84
//
variant_annotation: CGCAAA
reported_result: 1.7
//
variant_annotation: CGGUAG
reported_result: 1.61
//
variant_annotation: UAAUUC
reported_result: 1.91
//
variant_annotation: GAAGUC
reported_result: 1.87
//
variant_annotation: UGUGAG
reported_result: 1.59
//
variant_annotation: CCGGAU
reported_result: 1.78
//
variant_annotation: CCAAGA
reported_result: 1.82
